Some molecules, each annotated with its measured fold induction at 33 µM.
- Tested Target: Bombyx mori EcR (VP16 fusion, switch construct CVBE) with 6XEcRE LacZ reporter (Bombyx mori, UniProt P49881)
- Construct: expressed in transfected cells; host or cells: Human 293 kidney (HEK-293) cells, retrovirally infected, clone Z3
- Sequence (P49881 86-606 limits assumed): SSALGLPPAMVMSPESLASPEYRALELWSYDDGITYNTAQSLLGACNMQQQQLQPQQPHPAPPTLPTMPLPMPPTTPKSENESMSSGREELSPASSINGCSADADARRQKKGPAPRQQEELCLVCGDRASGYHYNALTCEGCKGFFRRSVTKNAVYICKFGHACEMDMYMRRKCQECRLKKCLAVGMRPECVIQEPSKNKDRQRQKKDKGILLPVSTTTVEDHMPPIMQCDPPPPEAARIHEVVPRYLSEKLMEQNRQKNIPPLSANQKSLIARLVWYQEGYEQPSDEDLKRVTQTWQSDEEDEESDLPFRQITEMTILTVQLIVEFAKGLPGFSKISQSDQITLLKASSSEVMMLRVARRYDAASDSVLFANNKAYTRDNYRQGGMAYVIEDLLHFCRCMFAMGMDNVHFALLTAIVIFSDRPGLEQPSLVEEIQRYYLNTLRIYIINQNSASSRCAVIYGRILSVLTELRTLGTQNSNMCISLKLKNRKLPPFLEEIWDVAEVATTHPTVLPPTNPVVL
- Sequence (P19793 whole entry partner, the tested form may be a part): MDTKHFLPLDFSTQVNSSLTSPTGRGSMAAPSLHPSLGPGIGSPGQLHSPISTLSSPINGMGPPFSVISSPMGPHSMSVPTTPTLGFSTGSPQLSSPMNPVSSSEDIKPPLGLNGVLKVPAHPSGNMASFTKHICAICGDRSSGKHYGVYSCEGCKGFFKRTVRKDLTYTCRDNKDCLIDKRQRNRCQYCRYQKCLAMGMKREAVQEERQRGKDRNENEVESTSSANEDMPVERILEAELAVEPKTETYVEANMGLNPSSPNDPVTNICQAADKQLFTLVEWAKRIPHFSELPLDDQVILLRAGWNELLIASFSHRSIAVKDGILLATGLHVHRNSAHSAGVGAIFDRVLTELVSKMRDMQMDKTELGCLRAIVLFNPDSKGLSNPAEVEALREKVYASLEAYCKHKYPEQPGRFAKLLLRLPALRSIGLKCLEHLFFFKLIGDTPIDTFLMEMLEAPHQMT
- Test Summary: Z3 assay: β-galactosidase (LacZ) reporter gene fold induction in stably transformed human 293 kidney cells (clone Z3)
- Format: cell-based
- Test Conditions: read-out: Fold Induction Average, Z3 Assay (33 μM)
Answer field: number only, no words.

Record excerpt, results attached:
[[record]]
molecule = "COc1cccc(C(=O)NC(C)(CC(C)C)C(=O)c2cccc(C)c2)c1C (centres unmarked)"
observed_measurement = 239

[[record]]
molecule = "COc1ccc(C(=O)C2(NC(=O)c3cccc(OC)c3C)CCCCC2)cc1"
observed_measurement = 15

[[record]]
molecule = "COc1cccc(C(=O)NC2(C(=O)c3cc(C)cc(C)c3)CC2)c1C"
observed_measurement = 293

[[record]]
molecule = "COc1cccc(C(=O)NC2(C(=O)c3cc(C)cc(C)c3)CCC3(CC2)OCCO3)c1C"
observed_measurement = 116


Kindly consider the entry below.
Notebook: COc1cccc(C(=O)C(C)(CC(C)C)NC(=O)c2cccc(OC)c2C)c1 (centres unmarked) , fold induction at 33 µM read as 112
